A short record of EC50 observed with Melanocyte-stimulating hormone receptor (Mus musculus, UniProt Q01727) follows.
Sequence (Q01727 whole entry): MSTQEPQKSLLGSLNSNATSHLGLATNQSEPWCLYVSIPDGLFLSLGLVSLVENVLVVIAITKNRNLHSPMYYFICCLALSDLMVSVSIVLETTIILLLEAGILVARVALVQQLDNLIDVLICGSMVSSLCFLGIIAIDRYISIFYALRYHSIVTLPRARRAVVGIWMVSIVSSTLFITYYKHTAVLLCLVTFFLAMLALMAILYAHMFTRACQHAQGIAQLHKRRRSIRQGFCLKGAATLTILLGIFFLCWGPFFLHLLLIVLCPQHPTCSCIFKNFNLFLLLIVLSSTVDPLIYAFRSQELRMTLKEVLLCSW
The reply should be a number in nM, with the unit left off.

Query block: Lab note: record EC50 of CCCC[C@H](NC(C)=O)C(=O)N[C@H]1CC(=O)NCCCC[C@@H](C(N)=O)NC(=O)[C@H](Cc2c[nH]c3ccccc23)NC(=O)[C@H](CCCN=C(N)N)NC(=O)[C@@H](Cc2ccc(I)cc2)NC(=O)[C@H](Cc2c[nH]cn2)NC1=O tested on Melanocyte-stimulating hormone receptor (Mus musculus, UniProt Q01727).
Result block: 0.19

Query block: Lab note: record EC50 of CCCC[C@H](NC(C)=O)C(=O)N[C@H]1CC(=O)NCCCC[C@@H](C(N)=O)NC(=O)[C@H](Cc2c[nH]c3ccccc23)NC(=O)[C@H](CCCNC(=N)N)NC(=O)[C@@H](Cc2ccc(Cl)cc2)NC(=O)[C@H](Cc2cnc[nH]2)NC1=O tested on Melanocyte-stimulating hormone receptor (Mus musculus, UniProt Q01727).
Result block: 0.0095

Query block: Lab note: record EC50 of CCCC[C@H](NC(C)=O)C(=O)N[C@H]1CC(=O)NCCCC[C@@H](C(N)=O)NC(=O)[C@H](Cc2c[nH]c3ccccc23)NC(=O)[C@H](CCCNC(=N)N)NC(=O)[C@@H](Cc2ccc3ccccc3c2)NC(=O)[C@H](Cc2c[nH]cn2)NC1=O tested on Melanocyte-stimulating hormone receptor (Mus musculus, UniProt Q01727).
Result block: 0.039

Query block: Lab note: record EC50 of CCCC[C@H](NC(C)=O)C(=O)N[C@H]1CC(=O)NCCCC[C@@H](C(N)=O)NC(=O)[C@H](Cc2c[nH]c3ccccc23)NC(=O)[C@H](CCCN=C(N)N)NC(=O)[C@@H](Cc2ccc(F)cc2)NC(=O)[C@H](Cc2c[nH]cn2)NC1=O tested on Melanocyte-stimulating hormone receptor (Mus musculus, UniProt Q01727).
Result block: 0.026
